assay.summary: cells
condition: Homo sapiens, YY-8103, 48 h
Description: Antiproliferative activity against human YY-8103 cells assessed as inhibition of cell growth measured after 48 hrs by MTT assay
readout.kind: IC50 (µM)

| compound | readout.kind | inequality.symbol | observed.measurement |
| --- | --- | --- | --- |
| CN(c1ncccc1CNc1nc(Nc2ccc(F)c(Cl)c2)nc2[nH]cc(F)c12)S(C)(=O)=O | IC50 | = | 82.5 |
| COc1ccc(Nc2nc(NCc3cccnc3N(C)S(C)(=O)=O)c3c(F)c[nH]c3n2)cc1OC | IC50 | = | 18.2 |
| CNC(=O)c1ccccc1Nc1nc(Nc2cccc(CNC(C)=O)c2)nc2[nH]cc(F)c12 | IC50 | = | 1.06 |
| CC(=O)NCc1cccc(Nc2nc(NCc3cccnc3N(C)S(C)(=O)=O)c3c(F)c[nH]c3n2)c1 | IC50 | = | 20.5 |
| CNC(=O)c1ccccc1Nc1nc(Nc2ccc3c(c2)CC(=O)N3)nc2[nH]cc(F)c12 | IC50 | = | 4.69 |
| CNC(=O)c1ccccc1Nc1nc(Nc2cccc(NC(C)=O)c2)nc2[nH]cc(F)c12 | IC50 | = | 2.39 |
| Cc1cc2c(NCc3cccnc3N(C)S(C)(=O)=O)nc(Nc3ccc4c(c3)CC(=O)N4)nc2[nH]1 | IC50 | > | 100 |
| CN(c1ncccc1CNc1nc(Nc2cccc(C#N)c2)nc2[nH]cc(F)c12)S(C)(=O)=O | IC50 | > | 100 |
| CC(=O)Nc1cccc(Nc2nc(NCc3cccnc3N(C)S(C)(=O)=O)c3c(F)c[nH]c3n2)c1 | IC50 | = | 14.4 |
| Cc1c[nH]c2nc(Nc3ccc4c(c3)CC(=O)N4)nc(NCc3cccnc3N(C)S(C)(=O)=O)c12 | IC50 | = | 12.4 |
| CN(c1ncccc1CNc1nc(Nc2ccccc2)nc2[nH]cc(F)c12)S(C)(=O)=O | IC50 | > | 100 |
| CN(c1ncccc1CNc1nc(Nc2cccc(CN)c2)nc2[nH]cc(F)c12)S(C)(=O)=O | IC50 | > | 100 |
| COc1cc(N2CCOCC2)ccc1Nc1nc(NCc2cccnc2N(C)S(C)(=O)=O)c2c(F)c[nH]c2n1 | IC50 | = | 15.4 |
| CN(c1ncccc1CNc1nc(Nc2ccc3c(c2)CC(=O)N3)nc2[nH]ccc12)S(C)(=O)=O | IC50 | = | 13.6 |
| COc1cccc(Nc2nc(NCc3cccnc3N(C)S(C)(=O)=O)c3c(F)c[nH]c3n2)c1C | IC50 | > | 100 |
| CN(c1ncccc1CNc1nc(Nc2ccc(N3CCOCC3)cc2)nc2[nH]cc(F)c12)S(C)(=O)=O | IC50 | > | 100 |
| CN(c1ncccc1CNc1nc(Nc2ccc3c(c2)CC(=O)N3)nc2[nH]cc(Cl)c12)S(C)(=O)=O | IC50 | = | 13.2 |
| COc1cc(Nc2nc(NCc3cccnc3N(C)S(C)(=O)=O)c3c(F)c[nH]c3n2)cc(OC)c1OC | IC50 | > | 100 |
| CN(c1ncccc1CNc1nc(Nc2ccc(F)cc2)nc2[nH]cc(F)c12)S(C)(=O)=O | IC50 | > | 100 |
| CNC(=O)c1ccccc1Nc1nc(Nc2ccc(N3CCOCC3)cc2OC)nc2[nH]cc(F)c12 | IC50 | = | 14.2 |
| CN(c1ncccc1CNc1nc(Nc2ccc3c(c2)CC(=O)N3)nc2[nH]cc(C#N)c12)S(C)(=O)=O | IC50 | > | 100 |
| CN(c1ncccc1CNc1nc(Nc2ccc3c(c2)CC(=O)N3)nc2[nH]cc(F)c12)S(C)(=O)=O | IC50 | = | 24.1 |
| CN1CCN(c2ccc(Nc3nc(NCc4cccnc4N(C)S(C)(=O)=O)c4c(F)c[nH]c4n3)cc2)CC1 | IC50 | = | 2.39 |
